The values you see were collected from paper PMC6171423.

tested on: colorectal adenocarcinoma (Caco-2) cells; assay: cells; details: Homo sapiens, Caco-2, 48 h, read-out: Cancer cells LC50 Caco-2

| molecule | assayed.system | CC50 [µM] |
| --- | --- | --- |
| Fc1ccc(-c2nc(Nc3cc(Br)cc4cc(-c5cccc(F)c5)oc34)c3cc(Br)ccc3n2)cc1 [Compound 10b] | colorectal adenocarcinoma (Caco-2) cells | 83.9 |
| Fc1ccc(-c2nc(Nc3cc(Br)cc4cc(-c5cccc(Cl)c5)oc34)c3cc(Br)ccc3n2)cc1 [Compound 10d] | colorectal adenocarcinoma (Caco-2) cells | 47.7 |
| Clc1ccc(-c2nc(Nc3cc(Br)cc4cc(-c5ccccc5)oc34)c3cc(Br)ccc3n2)cc1 [Compound 10f] | colorectal adenocarcinoma (Caco-2) cells | 75 |

* * *

test system: colorectal adenocarcinoma (Caco-2) cells; experiment: cells; conditions: Homo sapiens, Caco-2, 48 h, read-out: Cancer cells LC50 Caco-2
readout: CC50 (µM)

| compound | assayed.system | readout | units.text | experimental.value |
| --- | --- | --- | --- | --- |
| Clc1ccc(-c2nc(Nc3cc(Br)cc4cc(-c5cccc(Cl)c5)oc34)c3cc(Br)ccc3n2)cc1 [Compound 10i] | colorectal adenocarcinoma (Caco-2) cells | CC50 | µM | 33.5 |
| Fc1ccc(-c2nc(Nc3cc(Br)cc4cc(-c5ccc(OC(F)(F)F)cc5)oc34)c3cc(Br)ccc3n2)cc1 [Compound 10e] | colorectal adenocarcinoma (Caco-2) cells | CC50 | µM | 65.2 |
| Fc1ccc(-c2nc(Nc3cc(Br)cc4cc(-c5ccc(F)cc5)oc34)c3cc(Br)ccc3n2)cc1 [Compound 10c] | colorectal adenocarcinoma (Caco-2) cells | CC50 | µM | 98.8 |
| Fc1ccc(-c2nc(Nc3cc(Br)cc4cc(-c5ccccc5)oc34)c3cc(Br)ccc3n2)cc1 [Compound 10a] | colorectal adenocarcinoma (Caco-2) cells | CC50 | µM | 96.3 |
| Fc1ccc(-c2cc3cc(Br)cc(Nc4nc(-c5ccc(Cl)cc5)nc5ccc(Br)cc45)c3o2)cc1 [Compound 10h] | colorectal adenocarcinoma (Caco-2) cells | CC50 | µM | 49.1 |
| Fc1cccc(-c2cc3cc(Br)cc(Nc4nc(-c5ccc(Cl)cc5)nc5ccc(Br)cc45)c3o2)c1 [Compound 10g] | colorectal adenocarcinoma (Caco-2) cells | CC50 | µM | 94.4 |
| FC(F)(F)Oc1ccc(-c2cc3cc(Br)cc(Nc4nc(-c5ccc(Cl)cc5)nc5ccc(Br)cc45)c3o2)cc1 [Compound 10j] | colorectal adenocarcinoma (Caco-2) cells | CC50 | µM | 18.4 |

* * *

compounds and their reported CC50
system: cervical cancer (HeLa) cells; experiment: cells; details: Homo sapiens, 48 h, read-out: Cancer cells LC50 HeLa

| compound | CC50 |
| --- | --- |
| FC(F)(F)Oc1ccc(-c2cc3cc(Br)cc(Nc4nc(-c5ccc(Cl)cc5)nc5ccc(Br)cc45)c3o2)cc1 [Compound 10j] | 28.1 µM |
| Clc1ccc(-c2nc(Nc3cc(Br)cc4cc(-c5ccccc5)oc34)c3cc(Br)ccc3n2)cc1 [Compound 10f] | 15.4 µM |
| Fc1ccc(-c2nc(Nc3cc(Br)cc4cc(-c5ccc(F)cc5)oc34)c3cc(Br)ccc3n2)cc1 [Compound 10c] | 11.4 µM |
| Clc1ccc(-c2nc(Nc3cc(Br)cc4cc(-c5cccc(Cl)c5)oc34)c3cc(Br)ccc3n2)cc1 [Compound 10i] | 75.1 µM |
| COc1cc2ncnc(Nc3ccc(F)c(Cl)c3)c2cc1OCCCN1CCOCC1 [Gefitinib, reference compound] | 98.8 µM |
| Fc1ccc(-c2nc(Nc3cc(Br)cc4cc(-c5ccccc5)oc34)c3cc(Br)ccc3n2)cc1 [Compound 10a] | 17.6 µM |
| Fc1ccc(-c2nc(Nc3cc(Br)cc4cc(-c5ccc(OC(F)(F)F)cc5)oc34)c3cc(Br)ccc3n2)cc1 [Compound 10e] | 23.4 µM |
| Fc1cccc(-c2cc3cc(Br)cc(Nc4nc(-c5ccc(Cl)cc5)nc5ccc(Br)cc45)c3o2)c1 [Compound 10g] | 53.5 µM |
| Fc1ccc(-c2cc3cc(Br)cc(Nc4nc(-c5ccc(Cl)cc5)nc5ccc(Br)cc45)c3o2)cc1 [Compound 10h] | 28.6 µM |
| Fc1ccc(-c2nc(Nc3cc(Br)cc4cc(-c5cccc(Cl)c5)oc34)c3cc(Br)ccc3n2)cc1 [Compound 10d] | 22.1 µM |
| Fc1ccc(-c2nc(Nc3cc(Br)cc4cc(-c5cccc(F)c5)oc34)c3cc(Br)ccc3n2)cc1 [Compound 10b] | 47 µM |
